Biological target: Trifunctional purine biosynthetic protein adenosine-3 (Mus musculus) (UniProt Q64737)
Sequence (Q64737 whole entry, looked up): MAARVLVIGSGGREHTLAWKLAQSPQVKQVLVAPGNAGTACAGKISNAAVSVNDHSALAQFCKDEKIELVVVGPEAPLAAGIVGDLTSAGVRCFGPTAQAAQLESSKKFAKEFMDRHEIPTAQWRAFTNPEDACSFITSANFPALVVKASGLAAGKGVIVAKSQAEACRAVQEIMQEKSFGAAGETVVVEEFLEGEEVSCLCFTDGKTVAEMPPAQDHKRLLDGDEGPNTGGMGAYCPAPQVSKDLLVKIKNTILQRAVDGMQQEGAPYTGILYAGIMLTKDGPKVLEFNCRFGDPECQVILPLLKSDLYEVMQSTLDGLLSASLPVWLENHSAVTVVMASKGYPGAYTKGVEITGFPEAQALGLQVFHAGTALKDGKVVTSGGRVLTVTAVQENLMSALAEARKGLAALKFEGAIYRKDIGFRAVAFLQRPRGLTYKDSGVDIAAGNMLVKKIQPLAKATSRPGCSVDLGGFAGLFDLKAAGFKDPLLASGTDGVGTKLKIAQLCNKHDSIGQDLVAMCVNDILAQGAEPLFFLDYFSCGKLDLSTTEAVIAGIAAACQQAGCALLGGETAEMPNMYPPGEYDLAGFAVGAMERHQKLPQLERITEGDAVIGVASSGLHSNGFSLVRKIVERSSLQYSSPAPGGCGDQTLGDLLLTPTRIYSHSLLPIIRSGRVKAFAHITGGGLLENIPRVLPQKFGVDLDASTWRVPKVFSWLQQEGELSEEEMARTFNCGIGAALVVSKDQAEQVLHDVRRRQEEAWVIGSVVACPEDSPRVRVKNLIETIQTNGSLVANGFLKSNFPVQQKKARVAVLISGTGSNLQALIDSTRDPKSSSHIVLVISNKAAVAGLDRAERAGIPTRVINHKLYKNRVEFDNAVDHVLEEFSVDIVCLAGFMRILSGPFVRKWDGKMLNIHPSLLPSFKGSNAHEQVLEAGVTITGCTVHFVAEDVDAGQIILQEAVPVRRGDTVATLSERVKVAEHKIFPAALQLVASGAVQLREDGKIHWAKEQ
Assay: Inhibition activity against Glycinamide ribonucleotide transformylase (GAR-TFase) from L cell
assay_metric: pIC50
// scale note: pIC50 = -log10(conc_M); give the bare number

// sample CN(CCCc1c(N)nc(N)[nH]c1=O)c1ccc(C(=O)NC(CCC(=O)O)C(=O)O)cc1 (stereo unspecified) , its pIC50 was 5.37

---

Target: ATIC (Sus scrofa)
Assay: Inhibition activity against AICAR formyltransferase from hog liver
assay_metric: pIC50
// scale note: pIC50 = -log10(conc_M); give the bare number

// sample CN(CCCc1c(N)nc(N)[nH]c1=O)c1ccc(C(=O)NC(CCC(=O)O)C(=O)O)cc1 (stereo unspecified) , its pIC50 was 4.17
